System: N. gonorrhoeae FA1090
Test: Liquid broth MIC in Fastidious broth
Details: Neisseria gonorrhoeae, FA1090, read-out: Minimum Inhibitory Concentration (MIC), N. gonorrhoeae FA 1090
MEASURED_ENDPOINT: MIC

Worked set:
>>> measurement("O=C(NC(C(=O)N[C@H]1Cc2cccc(C(=O)O)c2OB1O)c1ccc(P(=O)(O)O)cc1)c1ccc(Cl)cn1 (stereo partly drawn) [Example 184]")
"< 1 µg/mL"
>>> measurement("O=C(CN1CCN(C(=O)N[C@@H](C(=O)N[C@H]2Cc3ccc(F)c(C(=O)O)c3OB2O)c2cc(F)c(O)c(O)c2Cl)C(=O)C1=O)NCc1ccncc1 [Example 239]")
"1 to 2 µg/mL"

Lab note: next molecule to report on.
IN: Entry under review: O=C(N[C@H](C(=O)N[C@H]1Cc2cccc(C(=O)O)c2OB1O)c1ccc(P(=O)(O)O)cc1)c1ccc(C(F)(F)F)cn1 (single isomer, unassigned) [Example 192] . Reported MIC?
OUT: < 1 µg/mL

----------
Test system: P. aeruginosa CDC-0110
Test: microbe, parasite or virus in culture
Assay type: cell-based
Conditions: Pseudomonas aeruginosa, CDC0110, read-out: Minimum inhibitory concentration, P. aeruginosa CDC-0110
MEASURED_ENDPOINT: MIC

Past entries and their recorded results:
>>> measurement("O=C(O)c1c(F)ccc2c1OB(O)[C@@H](NC(=O)[C@H](NC(=O)N1CCN(C3CCN(C(=O)Nc4cc(O)cc(F)c4)CC3)C1=O)c1cc(F)c(O)c(O)c1Cl)C2 (single isomer, unassigned)")
"< 1 µg/mL"
>>> measurement("O=C(NCCCN1CCN(C(=O)N[C@H](C(=O)N[C@H]2Cc3ccc(F)c(C(=O)O)c3OB2O)c2cc(F)c(O)c(O)c2Cl)C(=O)C1=O)c1cc(F)c(O)cc1F (single isomer, unassigned)")
"< 1 µg/mL"
>>> measurement("O=C(CN1CCN(C(=O)NC(C(=O)N[C@H]2Cc3ccc(F)c(C(=O)O)c3OB2O)c2cc(F)c(O)c(O)c2Cl)C(=O)C1=O)Nc1ccncc1 (some centres unmarked)")
"< 1 µg/mL"
>>> measurement("Cc1cnccc1C(=O)NCCCN1CCN(C(=O)NC(C(=O)N[C@H]2Cc3ccc(F)c(C(=O)O)c3OB2O)c2cc(F)c(O)c(O)c2Cl)C(=O)C1=O (some centres unmarked)")
"< 1 µg/mL"
>>> measurement("O=C(NCCCS(=O)(=O)N1CCN(C(=O)NC(C(=O)N[C@H]2Cc3ccc(F)c(C(=O)O)c3OB2O)c2cc(F)c(O)c(O)c2Cl)C1=O)Nc1cccnc1 (some centres unmarked)")
"2 to 4 µg/mL"

IN: What value of measured MIC is listed for CN(CCN1CCN(C(=O)NC(C(=O)N[C@H]2Cc3ccc(F)c(C(=O)O)c3OB2O)c2cc(F)c(O)c(O)c2Cl)C(=O)C1=O)S(=O)(=O)c1cccc(C(N)=O)c1 (some centres unmarked) ?
OUT: < 1 µg/mL

IN: # get_value(readout='MIC', item= O=C(O)c1c(F)ccc2c1OB(O)[C@@H](NC(=O)C(NC(=O)N1CCN(C3CCN(C(=O)Nc4cc(O)ccc4Cl)CC3)C(=O)C1=O)c1cc(F)c(O)c(O)c1Cl)C2 (some centres unmarked) )
OUT: 2 to 4 µg/mL

IN: Please look up its MIC: O=C(O)c1c(F)ccc2c1OB(O)[C@@H](NC(=O)C(NC(=O)N1CCN(S(=O)(=O)CCCNC(=O)[C@@H]3CCCN3)C1=O)c1cc(F)c(O)c(O)c1Cl)C2 (some centres unmarked)
OUT: < 1 µg/mL

IN: Fill in the blank: the reported MIC of O=C(NCCCN1CCN(C(=O)NC(C(=O)N[C@H]2Cc3ccc(F)c(C(=O)O)c3OB2O)c2cc(F)c(O)c(O)c2Cl)C(=O)C1=O)c1c(F)cncc1Cl (some centres unmarked) is ____.
OUT: < 1 µg/mL

IN: Please look up its MIC: O=C(NCCCN1CCN(C(=O)NC(C(=O)N[C@H]2Cc3ccc(F)c(C(=O)O)c3OB2O)c2cc(F)c(O)c(O)c2Cl)C(=O)C1=O)c1ccc(F)c(O)c1Cl (some centres unmarked)
OUT: < 1 µg/mL

IN: Endpoint output: MIC of O=C(NCCN1CCN(C(=O)NC(C(=O)N[C@H]2Cc3ccc(F)c(C(=O)O)c3OB2O)c2cc(F)c(O)c(O)c2Cl)C1=O)Nc1cccc(O)c1 (some centres unmarked) . Value?
OUT: < 1 µg/mL

----------
Entries and their EC50 values follow.
Biological target: A. baumannii PBP2 (Acinetobacter baumannii, UniProt D0C8Z9)
Sequence (D0C8Z9 whole entry): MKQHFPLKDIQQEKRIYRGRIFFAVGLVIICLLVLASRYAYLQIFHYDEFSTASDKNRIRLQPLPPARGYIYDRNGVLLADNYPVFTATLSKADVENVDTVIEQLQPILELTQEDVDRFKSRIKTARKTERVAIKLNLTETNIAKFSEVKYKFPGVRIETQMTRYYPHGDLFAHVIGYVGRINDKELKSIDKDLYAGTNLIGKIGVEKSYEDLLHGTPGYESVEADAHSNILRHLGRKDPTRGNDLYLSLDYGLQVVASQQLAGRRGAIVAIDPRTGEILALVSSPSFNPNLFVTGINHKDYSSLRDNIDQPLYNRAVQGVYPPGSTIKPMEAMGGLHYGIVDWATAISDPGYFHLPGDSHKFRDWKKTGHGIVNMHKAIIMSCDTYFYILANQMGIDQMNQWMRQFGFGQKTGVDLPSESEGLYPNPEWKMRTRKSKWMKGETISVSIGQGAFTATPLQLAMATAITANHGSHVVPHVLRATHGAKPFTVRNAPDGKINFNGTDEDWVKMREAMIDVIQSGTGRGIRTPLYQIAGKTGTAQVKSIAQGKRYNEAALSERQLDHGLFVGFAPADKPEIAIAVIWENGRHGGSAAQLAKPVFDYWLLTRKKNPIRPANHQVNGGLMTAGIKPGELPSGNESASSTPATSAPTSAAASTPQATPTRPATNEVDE
Experiment: Bocillin-FL competition binding via gel filtration, A. baumannii PBP2

// solved cases for EC50 follow
>>> measurement("O=C(O)c1c(F)ccc2c1OB(O)[C@@H](NC(=O)C(NC(=O)N1CCN(Cc3ccc(O)c(O)c3Cl)C(=O)C1=O)c1ccc(P(=O)(O)O)cc1)C2 (stereo partly drawn) [Example 8]")
"10 to 50 µM"
>>> measurement("O=C(NCCCN1CCN(C(=O)NC(C(=O)N[C@H]2Cc3ccc(F)c(C(=O)O)c3OB2O)c2cc(F)c(O)c(O)c2Cl)C(=O)C1=O)c1ccc(O)c(Cl)c1 (stereo partly drawn) [Example 305]")
"< 10 µM"

Shift focus to the following entry.
IN: // lookup EC50 for O=C(O)c1c(F)ccc2c1OB(O)[C@@H](NC(=O)C(NC(=O)N1CCN(C3CCN(Cc4ccc(O)cc4F)CC3)C1=O)c1cc(F)c(O)c(O)c1Cl)C2 (single isomer, unassigned) [Example 611]
OUT: 10 to 50 µM

----------
In this section, each of the molecules is paired with its reported MIC.
Tested on: A. baumannii CDC-0036
Assay: microbe, parasite or virus in culture
Format: cell-based
Conditions: Acinetobacter baumannii, CDC0036, read-out: MIC, A. baumannii CDC-0036

Recorded results for 5 molecules are shown here.
>>> measurement("O=C(NCCCN1CCN(C(=O)N[C@H](C(=O)N[C@H]2Cc3ccc(F)c(C(=O)O)c3OB2O)c2cc(F)c(O)c(O)c2Cl)C(=O)C1=O)c1cccc(O)c1Cl")
"> 128 µg/mL"
>>> measurement("O=C(O)c1c(F)ccc2c1OB(O)[C@@H](NC(=O)C(NC(=O)N1CCN(Cc3ccc(O)c(O)c3Cl)C(=O)C1=O)c1ccc(P(=O)(O)O)c(F)c1)C2 (some centres unmarked)")
"< 1 µg/mL"
>>> measurement("O=C(NCCS(=O)(=O)N1CCN(C(=O)N[C@H](C(=O)N[C@H]2Cc3ccc(F)c(C(=O)O)c3OB2O)c2cc(F)c(O)c(O)c2Cl)C1=O)c1ccc(O)cc1")
"> 128 µg/mL"
>>> measurement("O=C(O)c1c(F)ccc2c1OB(O)[C@@H](NC(=O)C(NC(=O)N1CCN(CC3CCN(C(=O)Nc4cccc(O)c4)CC3)C(=O)C1=O)c1cc(F)c(O)c(O)c1Cl)C2 (some centres unmarked)")
"2 to 4 µg/mL"
>>> measurement("O=C(NCCCN1CCN(C(=O)NC(C(=O)N[C@H]2Cc3ccc(F)c(C(=O)O)c3OB2O)c2cc(F)c(O)c(O)c2Cl)C(=O)C1=O)c1ccc(O)cc1 (some centres unmarked)")
"< 1 µg/mL"

Here is another molecule to look at.
IN: Request body: readout MIC, system A. baumannii CDC-0036, query O=C(NCCCN1CCN(C(=O)NC(C(=O)N[C@H]2Cc3ccc(F)c(C(=O)O)c3OB2O)c2cc(F)c(O)c(O)c2Cl)C(=O)C1=O)c1ccc(O)c(Cl)c1 (some centres unmarked) . Return the value.
OUT: 2 to 4 µg/mL

----------
Tested on: A. baumannii 1258916
Test: microbe, parasite or virus in culture
Format: cell-based, Acinetobacter baumannii
Settings: Acinetobacter baumannii, 1258916, read-out: MIC, A. baumannii 1258916
Parameter: MIC. Scope: all listed entries.

Use the examples below as a reference point.
>>> measurement("O=C(O)c1c(F)ccc2c1OB(O)[C@@H](NC(=O)C(NC(=O)N1CCN(CCCNC(=O)[C@@H]3CCCN3)C(=O)C1=O)c1cc(F)c(O)c(O)c1Cl)C2 (stereo partly drawn)")
"2 to 4 µg/mL"
>>> measurement("O=C(NCCCN1CCN(C(=O)NC(C(=O)N[C@H]2Cc3ccc(F)c(C(=O)O)c3OB2O)c2cc(F)c(O)c(O)c2Cl)C(=O)C1=O)c1ccc(O)c(F)c1Cl (stereo partly drawn)")
"2 to 4 µg/mL"

Query compound follows.
IN: // MIC lookup, key: O=C(O)c1c(F)ccc2c1OB(O)[C@@H](NC(=O)[C@@H](NC(=O)N1CCN(Cc3ccc(O)c(O)c3Cl)C(=O)C1=O)c1cccc(P(=O)(O)O)c1)C2 (single isomer, unassigned)
OUT: 32 to 64 µg/mL

----------
The compounds listed here are annotated with their MIC.
Tested on: A. baumannii CDC-0036
Assay: microbe, parasite or virus in culture
Format: cell-based
Conditions: Acinetobacter baumannii, CDC0036, read-out: MIC, A. baumannii CDC-0036

>>> measurement("O=C(O)c1c(F)ccc2c1OB(O)[C@@H](NC(=O)[C@H](NC(=O)N1CCN(C3CCN(C(=O)c4ccc(F)c(O)c4F)CC3)C1=O)c1cc(F)c(O)c(O)c1Cl)C2 (single isomer, unassigned)")
"< 1 mg/L"
>>> measurement("O=C(NCCCN1CCN(C(=O)NC(C(=O)N[C@H]2Cc3ccc(F)c(C(=O)O)c3OB2O)c2cc(F)c(O)c(O)c2Cl)C1=O)c1ccc(O)cc1 (stereo partly drawn)")
"2 to 4 mg/L"

Next:
IN: Recorded MIC for O=C(CN1CCN(C(=O)NC(C(=O)N[C@H]2Cc3ccc(F)c(C(=O)O)c3OB2O)c2cc(F)c(O)c(O)c2Cl)C(=O)C1=O)Nc1ccccc1 (stereo partly drawn) , please?
OUT: 8 to 16 mg/L
